assay: label from the status in PepcDB records;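 also: failed if final PepcDB status was selected cloned or expressed and not failed if soluble or beyond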
QUANTITY_MEASURED: protein production

Recorded results for 10 sequences are shown here.
1) MTRYLALDAFRGITIALMILVNTPGTWSHVYAPLLHAEWDGATPTDLVFPFFLFIIGSAMFFSFKKSNFSASPEQFRKIIKRGFIMFFIGFMLNVIPFTVNAEDWRIMGILQRIGIAYTVAACLVLTLNRTGVFIASAVILLAYWALLLSMGEGALTIEGNIIRQLDLAVFGANHMYTMRGVAFEPEGLLSTIPAIVNMLLGFELTRYLTSIEDKRSSVIKLTLIGGLAVGFGALWGLVLPINKSLWTPSYVIYSTGFACLLLAAFIWLIDIMKQVKLAEPLLVYGTNPLFVYVLSFLVVTMYLNINVGDVSMYAWLYKQLSGVFTPKLASFIFAFSHVAFFWYVSLKLYQRKIFIKI failed
2) MEGYSRNGEISPKLLDLMIPQERRNWFHDEKNSVFKTEEKKLELKLGPPGEEDDDESMIRHMKKEPKDKSILSLAGKYFSPSSTKTTSHKRTAPGPVVGWPPVRSFRKNLASGSSSKLGNDSTTSNGVTLKNQKCDAAAKTTEPKRQGGMFVKINMYGVPIGRKVDLSAHNSYEQLSFTVDKLFRGLLAAQRDFPSSIEDEKPITGLLDGNGEYTLTYEDNEGDKMLVGDVPWQMFVSSVKRLRVIKTSEISSALTYGNGKQEKMRR failed
3) MKFIIEALKRVRERRPLVHNITNFVVMNTTANALLALGASPVMAHAEEELEEMIRLADAVVINIGTLDSGWRRSMVKATEIANELGKPIVLDPVGAGATKFRTRVSLEILSRGVDVLKGNFGEISALLGEEGKTRGVDSLEYGEEEAKKLTMNAAREFNTTVAVTGAVDYVSDGRRTFAVYNGHELLGRVTGTGCMVAALTGAFVAVTEPLKATTSALVTFGIAAEKAYEEAKYPGSFHVKLYDWLYRINENVIRTYAKVREVEL not failed
4) MAATAREDGASGQERGQRGCEHYDRGCLLKAPCCDKLYTCRLCHDNNEDHQLDRFKVKEVQCINCEKIQHAQQTCEECSTLFGEYYCDICHLFDKDKKQYHCENCGICRIGPKEDFFHCLKCNLCLAMNLQGRHKCIENVSRQNCPICLEDIHTSRVVAHVLPCGHLLHRTCYEEMLKEGYRCPLCMHSALDMTRYWRQLDDEVAQTPMPSEYQNMTVDILCNDCNGRSTVQFHILGMKCKICESYNTAQAGGRRISLDQQ failed
5) MTLHNEIKQLIIDCLDLEDVSIDDIETDAPLFGDGLGLDSIDALELGLAIKKKFDVKIEANSDSTKAHFYSVASLAKFIESQRP failed
6) MSQEIAVIGSPAFTTGFQLAGVRKVENVADDEKDDDLDAAVEAVLADEDVGIAVMHDDDLAHLSRGVRQSVEASVEPTFVTIGGGASGASGLRDQIKRAIGIDLMDDDDDASAADTEAGDLEHHHHHH not failed
7) MDEVLKEILSSYQKRALKLTKRVRKKIFKNDPTENQKKAIKIALNTPDIAIIQGPPGTGKTTVINAICERLFEEYPKDKNIKGQILLCAQGHDATNNARERIKVGGLPTFKFGAKKNAKEEQYKQDERLNERLREFAETLIESVRKKLQKLGDYENIEKILDLEEALRRYYSSPISELEFLKEIEKNESFF failed
8) MEYEHITHSFEPVYDENSRILILGTLPSVASRENNFYYGHKQNRFWKLLAYLLDEPVPETIDEKKYMLFKNHIAIWDVIQSCDIKGSSDSSIKNVEPTDIRKILETADIKQVYANGNKAGALYKKYQLPLTGMEAVTLPSTSPANAAWSFERLCEAWTRILANL failed
9) MADHNNTPPFDLTKLDHYIKYQPREEAEDFFVHVEVKVLGKGSSPLEISFSTSVYEFVWEDEDCYELVELYEFFTEDAGIDAFEAQFLVNDLILYVNKTTRPLDEDFTGVFKLMAEVTLKPVQLNHAGSQKTESQQP failed
10) MRVVVMGCGRVGASVADGLSRIGHEVAIIDRDSAAFNRLSPQFAGERVLGQGFDRDVLLRAGIQGADAFAAVSSGDNSNIISARLARETFGVPRVVARIYDAKRAEVYERLGIPTIATVPWTTDRLLNALMQDTETAKWRDPTGTVAVAEVVLHEDWVGHRATDLEQATGARIAFLIRFGTGVLPEPKTVLQAGDKVYIAAISGRAAEAAAIAALPPSEDFESGARR failed

(Q) Quick one: protein production of "MTETIPVFDGHNDFLLRLLRNPANRETIWLKGDGTGHLDLPRMKEGGFAGGFFAIYVPSPQAHDAAHFEAMMDAPPFELPLPPMIRAEQAQPVALAMAGHLLWMERAARGRFKVCRTAAEVRSCHADGIVSGIMHMEGAEAIGADLDALHLFHSLGLRSLGPVWSRPTVFGHGVPFRFPGSPDTGEGLTEAGRRLVAECNRLKIMLDLSHLNEKGFDDVARLSDAPLVATHSNAHAVTPSTRNLTDRQLAMIRESRGMVGLNFATSFLREDGRRSAEMGWEPVLRHLDHLIDRLGEDHVGMGSDFDGATIPQGIADVTGLPALQAAMRAHGYDEPLMRKLCHENWYGLLERSWG" ?
(A) not failed

(Q) Quick one: protein production of "MKLICSKANLLKGVNIVSKAVPTRTTMAILECILIDASANEIKLMANDMELGIETIIDGTIEERGIIALDAKIFSEIVRKLPDNDVTIETDASFKTVISCEKAKFNIIGKSGDDFSYIPYVERNESIVLSQFTLKEVIRQTIFSIADNDNNKLMTGELFEIEENKLRVVSLDGHRISIRYIEMKNHYDSKKVVVPGKTLQEISKIIPGSADEDVVIYITNNHIVFEFENTTVVSRLIEGEYFKIDQMLSSDYDTKVRINKRELLDCIDRATLLVKEGDKKPIIMNITDGNMELRINSFIGSMNEDIDIDKDGKDIMIGFNPKFFIDALRVIDEEEVNLYMVNPKAPCFIKDDEGKFIYLILPVNFNTAAN" ?
(A) not failed

###

assay: label from the status in PepcDB records
QUANTITY_MEASURED: protein production

Recorded results for 5 sequences are shown here.
1. METNRPSPDALLVNLQEEADSSVGKLKIYFGFAAGVGKTYAMLSDAKDQLAAGVDVVAGYIEPHAREETLRMLEGIPIIPPKAINHKNIALKEFDLDEALKRKPELILVDELAHTNASGVRNKKRFQDVEELLQAGIDVYTTVNVQHIESLNDIVEGITKVAVRETIPDYVFDEADRVKLIDIEPDELLKRLEQGKIYQPARAKTAMQNFFTRENLKLLREIAMRKAADRI not failed
2. MPAIGSAPDGSRVSFMPKAWLLLALLLLLSLPARAEEWPALQWSQGTPASGPALQALEEYAFVPRDDESRQGIRTDALLVIRDGRLLYERYAGATGPQTPHLAWSASKSLLAVLLGVAFGEGRFQLQDPAAKFYPPLEAHPDITLADLLHWASGLDWQEDYEYAPLNSSVVAMLYTRGHRDMAAFTVQQAASGPPGQVFRYSSGDSNLLAASLRGMVGEGQYADYPWRALFEPLGITQAVWERDAAGTFVASSYLYLTARDLARIGLLMQRDGRWRDRQLLPKAWVEFCRTPFRGYRANQDVAVAGGHWWLNREVDGAPRPWPDAPADTYAALGHWGQALYVLPAQRLVIVRYGDDRDGSYQHNELLKRVLAAFATPEQP failed
3. MINRVPTNIITGFLGVGKTTAILHLLATKPAHEKWAVLVNEFGEIGIDGAIMSEQGAMIKEVPGGCLCCTAGVPMSVGINALLRQKPDRLIIEPTGLGHPKQVVATLISEQYQPYVDLKATIALMDPRHLSMDKYRSNQNFNDQLASADIVLGNKVDQCSSSDIDAFNDWVTDQTPAKTFSQLIKQGQFPIELLDMPRLVGHASTHIDSHHHHHAADEPQFQLAPQQPFLRKENRGQGYFSCGWLFGAEYQFNFDLLFQLLNDLTAERVKGVLNTDRGCYAFNVANGVVSVTEMSLDGFESRLEVIDSQLMPWSELESILLKIAGIPQALEHHHHHH failed
4. MAYEQFAYVYDELMQDVPYPEWVAWVLEQVEPGKRIADIGCGTGTATLLLADHYEVTGVDLSEEMLEIAQEKAMETNRHVDFWVQDMRELELPEPVDAITILCDSLNYLQTEADVKQTFDSAARLLTDGGKLLFDVHSPYKMETLFNGKTYATHAEQSSYIWFADPGEEPLSVVHELTFFIEGEDGRYDRVDETHHQRTYPPEQYITWLREAGFRVCAVTGDFKSDAPTETAERIFFVAEKI not failed
5. SIAILVIMHGESTASSMVNVANTLLDCNHAVAINMGLEDRVQDILVQAVEIANKIDKGKGILILTDMGSILTFAKVIRDATGKEVKAIDMVSTPIVIEATRKALTPEMTLEKLYFNIIESIKKHYGDMEVTYAEK failed

The record that follows has no protein production shown yet.
(Q) Quick one: protein production of "ALKQKIIGNGEKRVVTYAPTWREDDFISVGHYHFRWHFSLKKMMGLLPEDVMLLIRPHYLVTDRIDIKGFEDRVVIDSTTDMNEIYLITDLMVTDYSSVMFDFAILKRPMLFFAYDLEYYRDDLRGFYFDYYTELPGSIVTDETHLLAEIDQLLQNNFAELDPERFNKFAKRFVSWERGTAAQQVIEKINY" ?
(A) not failed
